koff listing for selected binders.
# MEASUREMENT_TARGET: T1, TRAIL (TNF-related apoptosis inducing ligand) ectodomain (UniProt P50591 39-281)
# T1 construct: also called TNFSF10; Apo2L
# T1 sequence (P50591 39-281): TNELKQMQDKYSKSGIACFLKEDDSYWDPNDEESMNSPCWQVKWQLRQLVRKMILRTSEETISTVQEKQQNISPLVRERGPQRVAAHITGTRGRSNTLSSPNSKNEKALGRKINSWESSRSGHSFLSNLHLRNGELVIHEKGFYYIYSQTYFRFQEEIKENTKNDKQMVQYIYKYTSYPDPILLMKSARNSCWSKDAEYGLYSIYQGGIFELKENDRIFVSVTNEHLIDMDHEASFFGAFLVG
# METHOD_DESCRIPTION: SPR
# SETUP_CONDITIONS: one partner purified
MEASURED_ATTRIBUTE: koff (s⁻¹)

[[record]]
binder = "human TRAIL-R2-Fc P150A (Fc fusion, source: Sf9 insect cells, culture supernatant; not shown: Fc (human IgG1), C-terminal, kept) QQDLAPQQRAAPQQKRSSPSEGLCPPGHHISEDGRDCISCKYGQDYSTHWNDLLFCLRCTRCDSGEVELSPCTTTRNTVCQCEEGTFREEDSAEMCRKCRTGCPRGMVKVGDCTPWSDIECVHKESG"
experimental_result = "9.02e-06"

[[record]]
binder = "human TRAIL-R2-Fc M152A (Fc fusion, source: Sf9 insect cells, culture supernatant; not shown: Fc (human IgG1), C-terminal, kept) QQDLAPQQRAAPQQKRSSPSEGLCPPGHHISEDGRDCISCKYGQDYSTHWNDLLFCLRCTRCDSGEVELSPCTTTRNTVCQCEEGTFREEDSPEACRKCRTGCPRGMVKVGDCTPWSDIECVHKESG"
experimental_result = 0.000678

[[record]]
binder = "human TRAIL-R2-Fc K155A (Fc fusion, source: Sf9 insect cells, culture supernatant; not shown: Fc (human IgG1), C-terminal, kept) QQDLAPQQRAAPQQKRSSPSEGLCPPGHHISEDGRDCISCKYGQDYSTHWNDLLFCLRCTRCDSGEVELSPCTTTRNTVCQCEEGTFREEDSPEMCRACRTGCPRGMVKVGDCTPWSDIECVHKESG"
experimental_result = 0.000138

[[record]]
binder = "human TRAIL-R2-Fc D148A (Fc fusion, source: Sf9 insect cells, culture supernatant; not shown: Fc (human IgG1), C-terminal, kept) QQDLAPQQRAAPQQKRSSPSEGLCPPGHHISEDGRDCISCKYGQDYSTHWNDLLFCLRCTRCDSGEVELSPCTTTRNTVCQCEEGTFREEASPEMCRKCRTGCPRGMVKVGDCTPWSDIECVHKESG"
experimental_result = "3.58e-05"

